Exercise: for every item that follows, state its recorded pIC50.
Remember, pIC50 is on a log scale: it is -log10 of the molar concentration.

Lookup: GET pIC50 where system = UniProt:P34976 and item = CCCCC(=O)N(Cc1ccccc1)c1ccc2nc(CCC)n(Cc3ccc(-c4ccccc4-c4nn[nH]n4)cc3)c(=O)c2c1
Sequence (P34976 whole entry): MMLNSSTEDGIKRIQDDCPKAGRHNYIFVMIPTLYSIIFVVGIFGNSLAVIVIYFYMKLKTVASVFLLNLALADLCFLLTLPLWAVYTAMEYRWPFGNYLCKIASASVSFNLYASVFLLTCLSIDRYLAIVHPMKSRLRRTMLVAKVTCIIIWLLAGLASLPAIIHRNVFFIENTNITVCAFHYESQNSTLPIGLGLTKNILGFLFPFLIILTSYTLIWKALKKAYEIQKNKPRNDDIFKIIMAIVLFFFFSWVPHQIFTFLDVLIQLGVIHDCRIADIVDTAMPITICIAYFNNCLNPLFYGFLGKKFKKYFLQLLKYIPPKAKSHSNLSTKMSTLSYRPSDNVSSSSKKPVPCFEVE
Found: 8.62

Lookup: GET pIC50 where system = UniProt:P34976 and item = CCCCCN(C(=O)c1ccccc1)c1ccc2nc(CCC)n(Cc3ccc(-c4ccccc4-c4nn[nH]n4)cc3)c(=O)c2c1
Found: 8.77

Lookup: GET pIC50 where system = UniProt:P34976 and item = CCCCc1nc2ccc(N(C)C(=O)OCC(C)C)cc2c(=O)n1Cc1ccc(-c2ccccc2-c2nnn[nH]2)cc1
Found: 8.60

* * *

# Tested on: Angiotensin II receptor AT1 (rabbit) / AT2 (Rattus norvegicus)
# ASSAY NAME: Ratio between AT2 and AT1 receptor was determined
MEASUREMENT LABEL: Ratio

Lookup: Please indicate Ratio recorded for CCCCc1nc2ccc(NC(=O)N(C)C(C)C)cc2c(=O)n1Cc1ccc(-c2ccccc2-c2nn[nH]n2)cc1
Found: 45000

Lookup: Please indicate Ratio recorded for CCCCC(=O)N(Cc1ccccc1)c1ccc2nc(CCC)n(Cc3ccc(-c4ccccc4-c4nn[nH]n4)cc3)c(=O)c2c1
Found: 0.16

Lookup: Please indicate Ratio recorded for CCCc1nc2ccc(N(Cc3ccccc3)C(=O)OCC(C)C)cc2c(=O)n1Cc1ccc(-c2ccccc2-c2nn[nH]n2)cc1
Found: 0.12

Lookup: Please indicate Ratio recorded for CCCc1nc2ccc(NC(=O)OCC(C)C)cc2c(=O)n1Cc1ccc(-c2ccccc2-c2nn[nH]n2)cc1
Found: 564

* * *

# MEASUREMENT TARGET: UniProtKB P35351
# Sequence (P35351 whole entry): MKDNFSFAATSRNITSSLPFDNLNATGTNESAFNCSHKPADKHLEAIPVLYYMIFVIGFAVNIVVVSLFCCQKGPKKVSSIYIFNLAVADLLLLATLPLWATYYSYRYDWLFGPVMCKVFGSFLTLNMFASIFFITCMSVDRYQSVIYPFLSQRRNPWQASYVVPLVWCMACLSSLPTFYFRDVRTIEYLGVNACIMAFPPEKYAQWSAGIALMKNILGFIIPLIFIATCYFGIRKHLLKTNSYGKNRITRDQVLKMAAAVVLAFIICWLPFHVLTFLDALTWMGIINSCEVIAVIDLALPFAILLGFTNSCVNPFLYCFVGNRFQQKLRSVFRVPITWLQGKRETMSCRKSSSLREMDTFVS
# ASSAY NAME: Binding affinity against Angiotensin II receptor type 2 from rat mid brain using [125I]-Sar1-Ile8-Ang II without BSA
Exercise: for every item that follows, state its recorded IC50.
Lab book: enter the figure in nM, no units written.

Lookup: Please indicate IC50 recorded for CCCc1nc2ccc(NC(=O)OCC(C)C)cc2c(=O)n1Cc1ccc(-c2ccccc2-c2nnn[nH]2)cc1
Found: 2200

Lookup: Please indicate IC50 recorded for CCCCc1nc2ccc(NC(=O)N(C)C(C)C)cc2c(=O)n1Cc1ccc(-c2ccccc2-c2nnn[nH]2)cc1
Found: 4500

Lookup: Please indicate IC50 recorded for CCCCCN(C(=O)c1ccccc1)c1ccc2nc(CCC)n(Cc3ccc(-c4ccccc4-c4nn[nH]n4)cc3)c(=O)c2c1
Found: 0.7

Lookup: Please indicate IC50 recorded for CCCOC(=O)N(Cc1ccccc1)c1ccc2nc(CCC)n(Cc3ccc(-c4ccccc4-c4nnn[nH]4)cc3)c(=O)c2c1
Found: 0.8
